Where these numbers come from: patent US7514448B2

pKi: −log10 of the molar value.
Parameter pKi, tested on PKA (Homo sapiens), listed per item.

- compound: "O=C(Cc1cccc(OCCCn2ccnc2)c1)Nc1nc(-c2c[nH]c3nccc(F)c23)cs1"
  pKi: "5.30 to 6.30"
- compound: "CN1CCN(CCOc2ccc(CC(=O)Nc3nc(-c4c[nH]c5ncccc45)cs3)c(Cl)c2)CC1"
  pKi: "5.30 to 6.30"
- compound: "O=C(CNCc1ccccc1)Nc1nc(-c2c[nH]c3ncccc23)cs1"
  pKi: "> 6.30"
- compound: "O=C(Nc1nc(-c2c[nH]c3ncccc23)cs1)N1CCCCC1"
  pKi: "5.30 to 6.30"
- compound: "O=C1NCC(C(=O)Nc2nc(-c3c[nH]c4ncccc34)cs2)N1 (centres unmarked)"
  pKi: "> 6.30"
